Measured pKd, listed per entry.
# Study Target: HLA-A*03:01
# Assay Comment: IEDB peptide-MHC binding, purified MHC/competitive/radioactivity; filed as Kd, often an IC50 or EC50 that approximates it; bounds were set here for any values at or beyond the usual limits of such assays
# Reported Conditions: source organism: Toxoplasma gondii
Lab note — pKd values are minus log10 of concentrations in M.

INSERT INTO assay_data (seq_string, reported_metric, experimental_result) VALUES
  ('AVVSLLRLLK', 'pKd', 7.77);

# ---- query sequence ----
Look up pKd for this sequence: `STFWPCLLR`
7.66
